melting point by entry:

Completed entries (count: 4):
Given the entry CCOC(=O)C(=O)CC(=O)C=Cc1ccc(O)c(OC)c1 , report its measured melting point.
97 to 98 °C

Next up: CCn1c2ccccc2c2cc(C=C(C#N)c3cc(C(F)(F)F)cc(C(F)(F)F)c3)ccc21
164 to 165 °C

Another: Cn1cncc1C(O)(c1ccc(Cl)cc1)c1ccc2c(c1)C(c1cccc(Cl)c1)n1nnnc1N2 (stereo not given)
> 260 °C

Entry to check: O=Cc1coc2ccc(Br)cc2c1=O
186 to 188 °C

More entries:
Using the record for O=C(CCN1CCOCC1)Nc1ccc2c(=O)c3ccc(NC(=O)CCN4CCOCC4)cc3[nH]c2c1 , report its melting point.
> 320 °C

Also need Nc1c(NC=O)c(=O)[nH]c(=O)n1Cc1ccc(Cl)cc1 , thanks.
274 to 278 °C

Please do the same for N#Cc1ccc(N2CCCC2)c2ccccc12 as well.
109 to 110 °C

====

melting point overview

Known melting point results, listed for orientation:
Would you mind telling me what melting point value was observed for COc1ccc(CCNC(=O)NO)cc1OC ?
109 to 111 °C

Now consider CCC(C)NCC(O)COc1ccc2c(=O)c(-c3ccccc3)c(-c3ccccc3)oc2c1 (configuration not stated) .
139 to 140 °C

Follow-up entry: CCOC(=O)c1ccc(CN2CCN(C(=O)OC(C)(C)C)C(C(N)=O)C2)c(C(F)(F)F)c1 (configuration not stated)
124 to 125 °C

What about COc1ccc(O)c(C(=O)c2ccc(O)cc2)c1 ?
144 to 148 °C

Repeat for the following molecule: CCc1nc(/C=C\c2cn(-c3ccccc3)nc2OCc2ccc(OCc3csc(N4CCCCC4)n3)c(OC)c2)cs1
93 to 94 °C

Cc1ccc(OS(=O)(=O)c2ccc(N3CCN(C)C3=O)cc2)c(C)c1 ?
159 to 161 °C

CONC(=O)c1nc(-c2ccc(Cl)c(OC)c2F)cc(N)c1Cl ?
215 to 217 °C

Another molecule to check: Cn1nnnc1CC(O)(c1ccc(F)cc1)c1ccc(F)cc1
116 to 118 °C

Now consider a different molecule.
Which melting point reading was recorded for the molecule CCn1c2ccccc2c2cc(N(c3ccccc3)c3ccccc3)ccc21 ?
152 to 154 °C

====

Items are presented alongside their recorded melting point.

Answered examples (4):
Suppose we examine the compound C[C@@H](CN(Cc1ccccc1)Cc1ccccc1)OC(=O)N1C(C)(C)COC1(C)C ; what melting point value has been reported?
117 °C

Please give the result for CC(C)(C)OC(=O)n1cnc(CN2C[C@@H](Cc3ccccc3)N(S(C)(=O)=O)Cc3cc(C#N)ccc32)c1 too.
150 to 151 °C

Again, but for CCCCCCCCCCCCCCCCCCOP(=O)(Cc1c(C)cc(C(C)(C)C)c(O)c1C)OCCCCCCCCCCCCCCCCCC
70 to 72 °C

Further, for COc1cc2[nH]nc(S(C)=O)c(=O)c2cc1OC (centres undefined) ?
303 °C

Next:
Which melting point value is on record for CC[C@H](C)[C@H](OCc1cc(F)cc(F)c1)[C@H]1[C@H]([N+](=O)[O-])[C@H](c2ccccc2)N[C@@H]1C(=O)NCC(=O)O ?
140 to 141 °C

Same question for COc1ccc(N2CCN(c3c(C)c(C)c4c(c3C)C(O)(c3ccccc3)C(C)(C)O4)CC2)cc1 (centres undefined) please.
123 to 125 °C

What do you have for CC1=C(C(=O)O)C(c2cccc(Cl)c2Cl)C(c2nnco2)=C(C)N1 (centres undefined) ?
187 to 190 °C

====

Recorded melting point, one value per entry.

Item CC(C)(C)OC(=O)NCc1ccc2c(Br)c(O)ccc2c1 has what recorded melting point?
150 to 152 °C

New cases:
Field request: melting point | item: CCc1cc(C(=O)Nc2c(C)cccc2C)no1
82 °C

Likewise for Cc1oc(-c2ccccc2)nc1COc1ccc(COc2ncccc2C=O)cc1 ?
97 to 98 °C

// same read-out, input: O=P(O)(O)Cc1ccccc1CP(=O)(O)O
> 300 °C

// same read-out, input: Cc1ccc(-c2cccc(/C=C/C(=O)Nc3ccc(CO)cc3)c2)cc1
220 to 223 °C

And for Cn1nnnc1SCCl ?
55 to 57 °C

And for Nc1nc2ccccc2n1CCCN1CCN(C(c2ccccc2)c2ccccc2)CC1 ?
229 °C

Would you mind doing COc1ccc(NC(=O)OC(C)(C)C)c(C)c1 as well?
80 to 82 °C

Also Cc1nc2ccccn2c(=O)c1CCN1CCC(Nc2nc3ccccc3n2Cc2cnccn2)CC1 , if possible.
204 °C

Now consider CSCC(=O)[C@H](Cc1ccccc1)NC(=O)[C@H](CC(C)C)NC(=O)CCc1ccccc1 .
104 to 107 °C

====

Form field: melting point (one value per entry).

# annotated cases, reported melting point shown
melting point lookup needed for COc1ccc2c(c1)CC(CC#N)C2=O (configuration not stated) , thanks.
117 to 120 °C

And the next one, COc1cc2c(cc1OC)CN(CCc1ccc(NC(=O)c3cccc4c(=O)c5cccc(F)c5[nH]c34)c(C)c1)CC2 ?
210 °C

Again, but for CC(=O)c1ccc2ccn(S(=O)(=O)c3ccccc3)c2c1
160 to 163 °C

---
I am curious: what melting point value has been reported for CSc1nnc(SC)c2cc(-c3ccccc3)ncc12 ?
155 °C

Ok, now CCn1nc(OCCCc2ccc(OC(C)C)cc2OCc2ccc(C(F)(F)F)cc2)cc1CCC(=O)O
75 to 76 °C

Now the same for CN1C(=O)CC(c2ccccc2)C1C(O)c1ccc(-c2ccc(F)c(Cl)c2)s1 (configuration not stated)
194 °C

====

Listing: melting point of selected compounds

Examples from the recorded data:
Which melting point value is on record for CCOC(=O)c1cc(C#N)c(C)nc1Nc1ccccc1 ?
133 to 135 °C

Field entry: O=C(OCc1ccccc1)N1CCC2(CC1)CN(c1ccc(Cl)c(Cl)c1)C(=O)O2
105 °C

Subsequent entry: COC(=O)C1C=CCn2c(=O)n(CSC(C)=O)c(=O)n21 (configuration not stated)
110 to 111 °C

How about CO/N=C1\CCCC[C@@H]1NC(=O)c1cnc(O[C@@H](C)C(F)(F)F)c(-c2ccc(Cl)cc2)n1 ?
120 to 123 °C

***
So what's the measured melting point for this one? CC(=O)OCC(=O)Nc1cc(C#N)cc(NC(=O)COC(C)=O)c1Cl
193 to 195 °C

Subsequent entry: O=C(NC(=O)c1ccccc1)NC1CCC(=O)c2sccc21 (configuration not stated)
187 to 190 °C

How about CC12CC(N3CCOCC3)C(O)CC1CCC1C2CCC2(C)C(O)C(N3CCCCC3)CC12 (configuration not stated) ?
222 to 229 °C

Try CCCCc1nc2c(N)nc3cccnc3c2n1CCCOC(C)C next.
174 to 175 °C

Okay, and N#Cc1nc(N2CCNCC2)nc(N2CCS(=O)CC2)c1Cl ?
206 to 208 °C

====

The entries below are paired with their reported melting point.

Fill in the blank: the reported melting point of CCOC(=O)/C(=C\c1ccc([N+](=O)[O-])cc1)P(=O)(OCC)OCC is ____.
60 to 61 °C

Also O=C(Nc1ccc(C(=O)N2Cc3cccn3Cc3ccccc32)cc1)c1ccc2[nH]ccc2c1 , if possible.
130 to 170 °C

Same for COc1cc2c(cc1OC)C(CBr)OCCC2 (stereo not given)
44 to 45 °C

Note, next up: Cc1ccc(-c2cc(CN)c(=O)n(CC(C)C)n2)cc1
74.9 to 77.9 °C

What about CC(C)(C)c1cc2sccc2c(C(C)(C)C)c1O ?
107 °C

====

Endpoint label: melting point

Some solved cases for reference:
Would you mind telling me what melting point value was observed for CCC(O)c1ccccc1CS(=O)(=O)NC(=O)Nc1nc(OC)cc(OC)n1 (centres undefined) ?
95 to 98 °C

Entry CCOC(=O)c1nc2n(n1)-c1ccc([N+](=O)[O-])cc1C(c1ccccc1F)=NC2 please
165 to 167 °C

Again, but for CC(C)(C)OC(=O)N1CCN(c2cccc3cc[nH]c23)CC1
150 to 151 °C

Cool, now CC(C)(C)OC(=O)N1CCc2c(n(CCOc3ccc(F)cc3)c3ccc(Cl)c(Cl)c23)CC1
164 to 166 °C

Further, for CSc1nnc2c3ccccc3c(-c3ccccc3)nn12 ?
220 to 221 °C

---
State the recorded melting point for this entry: COc1cc(NC(=O)OCc2ccccc2)c(Cl)cc1C(=O)O
182 to 183 °C

Follow-up entry: CC(=O)Oc1c(C)c(C)c2c(c1C)CCC(O)O2 (centres undefined)
115 to 120 °C

Now try CSc1c(C(Cc2ccccc2)C(=O)O)cc(C)c2c3ccccc3n(Cc3ccccc3)c12 (centres undefined) .
199 to 200 °C

Check COc1cccc(NC(=O)O[C@@H]2CN=C(c3ccccc3)O[C@H]2c2ccccc2)c1 (racemic) too.
110 °C

Another compound: O=C(Nc1ccccc1[N+](=O)[O-])C12CC3CC(CC(C3)C1)C2
111 to 114 °C

Then what about the compound CCOc1ccccc1OCC(O)CN (single isomer, unassigned; (-)) ?
87 °C

Check CCCc1cc(O)nc(SCC(N)=O)n1 too.
200 to 203 °C

Try the compound COC(=O)c1c2cccccc-2c(-c2ccccc2)c1-c1ccc(S(C)(=O)=O)cc1
98 to 100 °C

Also CCNC(=O)Nc1ccc(-c2sc3c(c2CN(C)CCC(=O)N2CCCC2)c(=O)n(-c2ccccc2)c(=O)n3Cc2c(F)cccc2F)cc1 , if possible.
240 to 244 °C

Subsequent entry: COC(=O)c1c(Oc2ccc(Cl)cc2N)c2ccccc2n1Cc1ccccc1
121 to 123 °C

Entry Cc1csc(NC(=O)c2nc(C)cc(C#N)c2C)n1 please
200 °C

Would you kindly repeat that for COc1ccc(C(F)(F)F)cc1Nc1cccn2nc(Nc3cccc(N4CCN(C)CC4)c3)nc12 ?
198 to 200 °C

Do the same for Cc1ccc(CN2CC=C(/C=C/c3ccc(Cl)cc3)CC2)cc1 please
113 to 115 °C

Okay, and CC(=O)c1ccc2c(c1)C(C)(C)C(O)CC2(C)C (centres undefined) ?
121 to 124 °C
